# Assayed Target: CCR2 (Homo sapiens (Human), UniProt P41597)
# Sequence (P41597 other isoform, or with tags, fused parts or gaps isoform P41597-2): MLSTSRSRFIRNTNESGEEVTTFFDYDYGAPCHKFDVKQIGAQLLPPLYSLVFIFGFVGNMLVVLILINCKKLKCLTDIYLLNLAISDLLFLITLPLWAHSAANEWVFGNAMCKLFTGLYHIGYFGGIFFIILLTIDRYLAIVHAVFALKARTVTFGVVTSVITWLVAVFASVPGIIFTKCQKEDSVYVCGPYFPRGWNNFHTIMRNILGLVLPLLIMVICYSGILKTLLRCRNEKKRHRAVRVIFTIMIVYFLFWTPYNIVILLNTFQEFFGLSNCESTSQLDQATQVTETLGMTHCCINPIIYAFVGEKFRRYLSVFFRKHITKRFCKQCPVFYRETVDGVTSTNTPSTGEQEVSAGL
# Assay Remarks: CCR2 chemotaxis assay (conventional migration assay, THP-1 cells, MCP-1)
# Format: cell-based
# Recorded Conditions: THP-1 cells, 0.1 nM MCP-1; read-out: IC50 in the CCR2 chemotaxis assay
pIC50: −log10 of the molar value.
Recorded Metric: pIC50

>>> print(df.to_string())
                           substance_smiles  test_value
0  O=C(c1ncc(Cl)cc1NS(=O)(=O)c1ccc(Cl)c(C(F)(F)F)c1)c1cncc2[nH]ccc12      > 6.00

Read the next record carefully.
Sure, the documented pIC50 for Cc1cnc(C(=O)c2cncc3[nH]ccc23)c(NS(=O)(=O)c2ccc(Cl)c(Cl)c2)c1 is > 6.00
